Molecular target: T1, SARS-CoV2 Spike ecto foldon Trimer expressed with a C-terminal myc-myc-hexahistidine (SARS-CoV-2, UniProt P0DTC2 14-1213)
T1 construct: extracellular domain
Test: SPR Biacore, mAb captured by anti-hFc, 37C
Readout Label: kon (M⁻¹ s⁻¹)
Answers are plain numbers, in M⁻¹ s⁻¹.

Need kon for each of these binders.
1. mAb13459 (antibody, V domains shown) VH: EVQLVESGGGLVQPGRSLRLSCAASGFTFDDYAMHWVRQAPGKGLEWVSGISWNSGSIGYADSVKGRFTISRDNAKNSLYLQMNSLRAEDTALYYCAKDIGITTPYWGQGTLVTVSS VL: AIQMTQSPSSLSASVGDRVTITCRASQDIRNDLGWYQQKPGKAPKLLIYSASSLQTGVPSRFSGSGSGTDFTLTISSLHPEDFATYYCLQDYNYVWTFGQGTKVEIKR
2. mAb14282 (antibody, V domains shown) VH: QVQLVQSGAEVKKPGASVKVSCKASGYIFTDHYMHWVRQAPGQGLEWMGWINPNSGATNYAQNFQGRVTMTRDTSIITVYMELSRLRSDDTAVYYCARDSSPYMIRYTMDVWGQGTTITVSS VL: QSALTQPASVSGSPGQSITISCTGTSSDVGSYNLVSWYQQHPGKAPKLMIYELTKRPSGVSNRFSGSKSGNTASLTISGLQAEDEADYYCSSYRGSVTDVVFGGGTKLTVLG
3. mAb15164 (antibody, V domains shown) VH: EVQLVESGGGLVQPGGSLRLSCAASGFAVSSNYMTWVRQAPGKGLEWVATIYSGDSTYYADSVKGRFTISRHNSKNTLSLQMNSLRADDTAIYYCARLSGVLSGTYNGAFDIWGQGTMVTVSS VL: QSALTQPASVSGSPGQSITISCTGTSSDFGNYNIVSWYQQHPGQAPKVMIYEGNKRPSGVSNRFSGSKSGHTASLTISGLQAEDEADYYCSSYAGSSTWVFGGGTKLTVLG

1: 794000; 2: 1.05e+06; 3: 1.78e+06
